biological target: PAI-1 wild type, active (human, UniProt P05121 24-402); assay: branched SELEX with high-throughput sequencing; PAI-1 immobilised on monoclonal anti-PAI-1 antibody mAb-1; HBS (10 mM HEPES pH 7.4, 140 mM NaCl), 2 mM MgCl2, 2 mM CaCl2, 0.1% BSA; RNA pool 100 nM; PAI-1 captured on antibody-coated wells; 45 min; binding temperature not stated (PAI-1 capture at room temperature); high values mean tight binding; settings: protein: recombinant; tags: N-terminal His6; structured_RNA; 2'-F pyrimidines;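 also: Pool frequency after one selection round with this target divided by frequency before selection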
Sequence (P05121 24-402): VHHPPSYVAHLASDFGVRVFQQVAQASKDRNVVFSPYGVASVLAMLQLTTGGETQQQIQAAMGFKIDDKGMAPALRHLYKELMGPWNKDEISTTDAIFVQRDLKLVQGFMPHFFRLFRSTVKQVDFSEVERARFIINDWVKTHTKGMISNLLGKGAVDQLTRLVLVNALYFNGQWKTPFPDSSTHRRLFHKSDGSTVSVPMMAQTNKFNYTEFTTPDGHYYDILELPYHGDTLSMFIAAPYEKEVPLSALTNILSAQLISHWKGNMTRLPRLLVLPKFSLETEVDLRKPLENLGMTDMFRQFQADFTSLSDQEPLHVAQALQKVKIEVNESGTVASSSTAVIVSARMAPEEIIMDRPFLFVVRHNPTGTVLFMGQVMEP
Readings of binding signal for the listed sequences
Entry rule: numbers only, all in enrichment factor.

GGGGCCACCAACGACAUUUAGCACCAGCUAACCGUACGCUCAACGCGUAGUUCGUUGAUAUAAAUAGUGCCCAUGGAUC = 5.48

Q. I am curious: what binding signal value has been reported for GGGGCCACCAACGACAUUUCCUAAACAGGAUCUAUACUCCUAGCGAGUAGUUCGUUGAUAUAAAUAGUGCCCAUGGAUC ?
A. 3.43

Q. I am curious: what binding signal value has been reported for GGGGCCACCAACGACAUUUGCAAUUUAUGCAACCUUAGCGGAUUCGCUAGUUCGUUGAUAUAAAUAGUGCCCAUGGAUC ?
A. 3.88

Q. I am curious: what binding signal value has been reported for GGGGCCACCAACGACAUUUGGACUGAAUCCAACCUUAUGCGUAAGCAUAGUUCGUUGAUAUAAAUAGUGCCCAUGGAUC ?
A. 3.55

====

target: PAI-1 wild type, active (human, UniProt P05121 24-402); assay: branched SELEX with high-throughput sequencing; PAI-1 immobilised on polyclonal anti-PAI-1 antibody; HBS (10 mM HEPES pH 7.4, 140 mM NaCl), 2 mM MgCl2, 2 mM CaCl2, 0.1% BSA; RNA pool 100 nM; PAI-1 captured on antibody-coated wells; 45 min; binding temperature not stated (PAI-1 capture at room temperature); high values mean tight binding; details: protein: recombinant; tags: N-terminal His6; structured_RNA; 2'-F pyrimidines
Readings of binding signal for the listed sequences
Entry rule: numbers only, all in enrichment factor.

Q. I am curious: what binding signal value has been reported for GGGGCCACCAACGACAUUGUAGACUUGUCAACGGUCGACUGUCGAUACAUGUGUUGAUAUAAAUAGUGCCCAUGGAUC ?
A. 0.56

Q. I am curious: what binding signal value has been reported for GGGGCCACCAACGACAUUAUCGACCAUAACGUAGCGGGCUUUCCCGUGAUCAGGUUGAUAUAAAUAGUGCCCAUGGAUC ?
A. 0.91

Q. I am curious: what binding signal value has been reported for GGGGCCACCAACGACAUUUUGUAGGUGUCAACUACCGACCGUCGUUUGCAUUAGUUGAUAUAAAUAGUGCCCAUGGAUC ?
A. 1.24

Q. I am curious: what binding signal value has been reported for GGGGCCACCAACGACAUUUUACUGUAGAGAAGAAUUACUUCUCGACCAAAUGUGGUUGAUAUAAAUAGUGCCCAUGGAUC ?
A. 0.55

Q. I am curious: what binding signal value has been reported for GGGGCCACCAACGACAUUUGUCAACAUAACGUAGAGCAAUUACAGCUCGAUCAGUUGAUAUAAAUAGUGCCCAUGGAUC ?
A. 3.13

Q. I am curious: what binding signal value has been reported for GGGGCCACCAACGACAUUGAACGUAAGGAGAGUGCGCUUACCGCACAAUGUUUGUUGAUAUAAAUAGUGCCCAUGGAUC ?
A. 0.43

Q. I am curious: what binding signal value has been reported for GGGGCCACCAACGACAUUAUUUUCCGGUCGUUUAGGUGUUCAACACUCCGGAUGUUGAUAUAAAUAGUGCCCAUGGAUC ?
A. 8.72

Q. I am curious: what binding signal value has been reported for GGGGCCACCAACGACAUUACACUGUAGCGAGCCAGACUCGCGACCAAAUGCGUUGAUAUAAAUAGUGCCCAUGGAUC ?
A. 0.89

====

Readings of binding signal for the listed sequences
target: PAI-1 wild type, active (human, UniProt P05121 24-402); assay: branched SELEX with high-throughput sequencing; PAI-1 immobilised on polyclonal anti-PAI-1 antibody; HBS (10 mM HEPES pH 7.4, 140 mM NaCl), 2 mM MgCl2, 2 mM CaCl2, 0.1% BSA; RNA pool 100 nM; PAI-1 captured on antibody-coated wells; 45 min; binding temperature not stated (PAI-1 capture at room temperature); high values mean tight binding; conditions: protein: recombinant; tags: N-terminal His6; structured_RNA; 2'-F pyrimidines;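 also: Pool frequency after one selection round with this target divided by frequency before selection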
Entry rule: numbers only, all in enrichment factor.

GGGGCCACCAACGACAUUCGUGUUGUAUCUGUUAUACAGCAUGUUAUUUGUGCGUUGAUAUAAAUAGUGCCCAUGGAUC = 3.72

Q. I am curious: what binding signal value has been reported for GGGGCCACCAACGACAUUCAACGACCAGUACGUGUGAGGGCGUACAUCAUGUAGUUGAUAUAAAUAGUGCCCAUGGAUC ?
A. 0.37

Q. I am curious: what binding signal value has been reported for GGGGCCACCAACGACAUUAAGUUCGUCCUCUUCCAAGAGAAGGGGUCUAUGCCGUUGAUAUAAAUAGUGCCCAUGGAUC ?
A. 5.35

Q. I am curious: what binding signal value has been reported for GGGGCCACCAACGACAUUAUGCCGUAGGCGCUAGAUGUGCCGAUCAUAAUGCAGUUGAUAUAAAUAGUGCCCAUGGAUC ?
A. 0.5

====

molecular target: PAI-1 wild type, active (human, UniProt P05121 24-402); assay: branched SELEX with high-throughput sequencing; PAI-1 immobilised on polyclonal anti-PAI-1 antibody; HBS (10 mM HEPES pH 7.4, 140 mM NaCl), 2 mM MgCl2, 2 mM CaCl2, 0.1% BSA; RNA pool 100 nM; PAI-1 captured on antibody-coated wells; 45 min; binding temperature not stated (PAI-1 capture at room temperature); high values mean tight binding; conditions: protein: recombinant; tags: N-terminal His6; structured_RNA; 2'-F pyrimidines;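 also: Pool frequency after one selection round with this target divided by frequency before selection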
VALUE KIND: binding signal (enrichment factor)
Entry rule: numbers only, all in enrichment factor.

GGGGCCACCAACGACAUUCACCACGUAGUGAAACUUUCACGACUAGAAUGUAAGUUGAUAUAAAUAGUGCCCAUGGAUC = 0.74

Q. I am curious: what binding signal value has been reported for GGGGCCACCAACGACAUUUCGACUUGUAGACGAUAUUCGUCGACUCGAAGAGCGUUGAUAUAAAUAGUGCCCAUGGAUC ?
A. 0.51

Q. I am curious: what binding signal value has been reported for GGGGCCACCAACGACAUUAGCAGUCGUAGGCCGUAAUGGCUGACCUGUAUGACGUUGAUAUAAAUAGUGCCCAUGGAUC ?
A. 0.68

Q. I am curious: what binding signal value has been reported for GGGGCCACCAACGACAUUGUCGUAGGACGUGAGUGUCUGACCGAUGUAGUUGGGUUGAUAUAAAUAGUGCCCAUGGAUC ?
A. 0.65

Q. I am curious: what binding signal value has been reported for GGGGCCACCAACGACAUUCAACGUGCACUGUAGCUGUACAAAGCGACCAACGUUGAUAUAAAUAGUGCCCAUGGAUC ?
A. 6.23

Q. I am curious: what binding signal value has been reported for GGGGCCACCAACGACAUUAAGUUCGUCCCCGUAAGCUCUUACGGGGUCUAUGCGUUGAUAUAAAUAGUGCCCAUGGAUC ?
A. 5.92

Q. I am curious: what binding signal value has been reported for GGGGCCACCAACGACAUUGCCGUAGUUUCUCGAUUCCCAGAGAGACGAUCGAUGUUGAUAUAAAUAGUGCCCAUGGAUC ?
A. 4.28

====

target: PAI-1 wild type, active (human, UniProt P05121 24-402); experiment: branched SELEX with high-throughput sequencing; PAI-1 immobilised on polyclonal anti-PAI-1 antibody; HBS (10 mM HEPES pH 7.4, 140 mM NaCl), 2 mM MgCl2, 2 mM CaCl2, 0.1% BSA; RNA pool 100 nM; PAI-1 captured on antibody-coated wells; 45 min; binding temperature not stated (PAI-1 capture at room temperature); high values mean tight binding; settings: protein: recombinant; tags: N-terminal His6; structured_RNA; 2'-F pyrimidines;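 also: Pool frequency after one selection round with this target divided by frequency before selection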
Readings of binding signal for the listed sequences
Entry rule: numbers only, all in enrichment factor.

// worked examples, binding signal included
GGGGCCACCAACGACAUUGACCCAUCUCGCGUUUCCGGGAUGACUAGUAGAAUGUUGAUAUAAAUAGUGCCCAUGGAUC = 0.56
GGGGCCACCAACGACAUUAUGAGCCCUAUCUAUCGACCGAUCAUGUCACGUAGGUUGAUAUAAAUAGUGCCCAUGGAUC = 1.38

Note: attention shifts to another entry.
Q. I am curious: what binding signal value has been reported for GGGGCCACCAACGACAUUCGGGACUACGUAGGCGGAUUCGCCGAUUACCCGUUGUUGAUAUAAAUAGUGCCCAUGGAUC ?
A. 0.7
